target: Serine/threonine-protein kinase PLK1 (Homo sapiens, UniProt P53350); assay: Binding affinity to full length PLK1 in human PC-3 cells assessed as stabilized protein incubated for 2 hrs followed by aggregation temperature at 56.2 degC by […] analysis
Sequence (P53350 whole entry): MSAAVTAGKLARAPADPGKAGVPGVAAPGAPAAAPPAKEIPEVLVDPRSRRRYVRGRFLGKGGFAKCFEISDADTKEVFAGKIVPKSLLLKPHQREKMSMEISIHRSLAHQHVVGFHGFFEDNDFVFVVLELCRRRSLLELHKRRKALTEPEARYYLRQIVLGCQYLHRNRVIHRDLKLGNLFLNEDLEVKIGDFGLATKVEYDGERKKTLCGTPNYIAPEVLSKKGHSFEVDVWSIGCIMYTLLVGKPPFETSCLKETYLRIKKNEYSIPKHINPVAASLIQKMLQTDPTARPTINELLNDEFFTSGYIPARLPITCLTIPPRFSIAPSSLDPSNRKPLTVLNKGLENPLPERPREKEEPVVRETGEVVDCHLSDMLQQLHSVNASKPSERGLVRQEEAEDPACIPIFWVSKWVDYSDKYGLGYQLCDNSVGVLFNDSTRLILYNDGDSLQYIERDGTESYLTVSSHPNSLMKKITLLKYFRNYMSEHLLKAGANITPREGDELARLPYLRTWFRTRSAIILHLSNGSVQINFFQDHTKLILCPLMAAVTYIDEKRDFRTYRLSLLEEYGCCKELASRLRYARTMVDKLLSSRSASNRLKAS
measurement_name: pEC50
Give bare numbers, as −log10 of the molar value.

**Query** Reported pEC50, compound CCCCCCCCc1ccc(C(=O)Nc2ccc(C)cc2C(=O)O)cc1 : ____
**Result** 6.09

* * *

system: HeLa; assay: Antiproliferative activity against human HeLa cells assessed as cell viability measured after 72 hrs by MTT assay; assay type: functional, cell-based
measurement_name: IC50 (µM)
One number for each entry, in µM.

**Query** Reported IC50, molecule CCCCCCCCc1ccc(C(=O)Nc2ccc(OC)cc2C(=O)O)cc1 : ____
**Result** 8
